- system.name: androgen receptor in LNCaP cells (functional mutant AR) (Homo sapiens, UniProt P10275, T878A)
- Construct: host or cells: LNCaP
- Sequence (P10275 whole entry T878A): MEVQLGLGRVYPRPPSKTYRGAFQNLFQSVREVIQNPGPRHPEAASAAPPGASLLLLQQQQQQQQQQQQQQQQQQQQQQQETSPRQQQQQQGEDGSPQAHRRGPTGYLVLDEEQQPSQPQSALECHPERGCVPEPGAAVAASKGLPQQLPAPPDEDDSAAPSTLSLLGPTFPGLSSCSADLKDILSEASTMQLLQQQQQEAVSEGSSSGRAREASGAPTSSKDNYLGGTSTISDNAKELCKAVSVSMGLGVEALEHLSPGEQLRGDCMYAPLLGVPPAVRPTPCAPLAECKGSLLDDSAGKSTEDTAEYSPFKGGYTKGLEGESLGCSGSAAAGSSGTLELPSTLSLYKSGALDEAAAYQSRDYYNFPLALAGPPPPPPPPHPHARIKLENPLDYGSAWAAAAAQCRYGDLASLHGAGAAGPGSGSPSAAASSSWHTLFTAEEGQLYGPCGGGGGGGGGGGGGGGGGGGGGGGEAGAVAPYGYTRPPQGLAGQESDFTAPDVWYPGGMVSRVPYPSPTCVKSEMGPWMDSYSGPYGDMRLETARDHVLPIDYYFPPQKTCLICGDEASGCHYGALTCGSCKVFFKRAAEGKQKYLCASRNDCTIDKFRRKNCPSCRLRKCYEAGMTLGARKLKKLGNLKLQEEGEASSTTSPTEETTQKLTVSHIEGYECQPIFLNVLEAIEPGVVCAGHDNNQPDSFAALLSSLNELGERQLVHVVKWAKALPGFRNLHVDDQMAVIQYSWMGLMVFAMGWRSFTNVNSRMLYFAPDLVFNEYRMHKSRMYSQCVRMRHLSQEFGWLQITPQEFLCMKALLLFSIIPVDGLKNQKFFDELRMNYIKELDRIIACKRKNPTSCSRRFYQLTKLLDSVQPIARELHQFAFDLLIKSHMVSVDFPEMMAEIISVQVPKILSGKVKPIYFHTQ
- test: Androgen receptor binding competition assay (3H-R1881) in LNCaP cells
- cond: repeated studies, data not shown; read-out: IC50 values, repeated studies of competition for 3H-R1881 binding
pIC50: −log10 of the molar value.
measurement.kind: pIC50

Q: Please supply the value of reported pIC50 for the item Cc1c(C)c2c(c(C)c1O)CCC(C)(C)O2
Ans: 4.82 to 5.30

====

- system.name: androgen receptor in LAPC4 cells (normal human AR) (Homo sapiens)
- Sequence (P10275 whole entry): as the sequence (P10275 whole entry T878A) above, with A878T counted along it
- test: Androgen receptor binding competition assay (3H-R1881) in LAPC4 cells
- cond: against 1 nM R1881
measurement.kind: IC50

Q: Please supply the value of reported IC50 for the item Cc1c(C)c2c(c(C)c1O)CCC(C)(C)O2
Ans: ~10 µM
